Cited source for all entries: paper PMC13016609

targetUnderTest: T1, TFAM (no MTS) (Homo sapiens, UniProt Q00059 43-246)
T1 sequence: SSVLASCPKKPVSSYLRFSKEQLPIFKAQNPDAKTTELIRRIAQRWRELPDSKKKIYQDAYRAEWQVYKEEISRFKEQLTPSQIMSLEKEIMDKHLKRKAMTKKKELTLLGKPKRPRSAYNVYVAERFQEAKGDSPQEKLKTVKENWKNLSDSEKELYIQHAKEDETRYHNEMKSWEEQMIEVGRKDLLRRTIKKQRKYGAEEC
testMethodNotes: fluorescence anisotropy; Hill n 5.06±0.09; FP: 25 mM HEPES, 10 mM Mg(OAc)2, 25 mM NaOAc, 75 mM KOAc, pH 7.5, 1 nM DNA, TFAM 0-15 nM diluted on ice (read temperature not stated); AFM oligos: on ice, 2 min
setupConditions: protein: recombinant; label: 5' 6-FAM on strand 1 (FP); blunt
quantityKind: Kd (nM)

[
  {
    "binder": "ND4_473 (dsDNA) DNA 1: CGGCGCAGTCATTCTCATAATCGCCCACGGGCT DNA 2: AGCCCGTGGGCGATTATGAGAATGACTGCGCCG",
    "valueReported": 4.95
  }
]
